# EXPERIMENTAL SYSTEM: UGT1A1 (Homo sapiens, UniProt P22309)
# Construct: native enzyme in ultrapooled human liver microsomes (Corning 452161), read by SN-38 glucuronidation
# Sequence (P22309 26-533): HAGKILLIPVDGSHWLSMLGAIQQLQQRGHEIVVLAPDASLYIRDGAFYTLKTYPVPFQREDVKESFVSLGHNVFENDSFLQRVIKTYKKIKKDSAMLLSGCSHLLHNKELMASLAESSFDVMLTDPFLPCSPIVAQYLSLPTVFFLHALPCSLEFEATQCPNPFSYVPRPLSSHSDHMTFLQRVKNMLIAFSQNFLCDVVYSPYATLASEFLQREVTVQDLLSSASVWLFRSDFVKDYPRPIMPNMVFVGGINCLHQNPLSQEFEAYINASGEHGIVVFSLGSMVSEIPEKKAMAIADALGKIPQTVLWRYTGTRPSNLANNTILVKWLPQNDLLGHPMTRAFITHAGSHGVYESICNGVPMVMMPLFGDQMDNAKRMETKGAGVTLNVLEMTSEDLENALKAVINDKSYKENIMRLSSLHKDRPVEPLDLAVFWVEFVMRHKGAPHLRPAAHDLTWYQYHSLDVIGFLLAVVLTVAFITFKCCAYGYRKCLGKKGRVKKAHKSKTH
# EXPERIMENTAL PROTOCOL: SN-38 glucuronidation in human liver microsomes, cocktail, LC-MS/MS
# Format: biochemical
# CONDITION LABEL: 0.5 µM SN-38 (probe cocktail set A), 5 mM UDPGA, 10 mM MgCl2, alamethicin, pH 7.4, 37 °C, 60 min; read-out: IC50 (μM) / Eudesmin
MEASURED QUANTITY: IC50 (µM)
Give the value in µM but do not write µM after it.

Looking for the measured IC50 of COc1ccc([C@H]2OC[C@H]3[C@@H]2CO[C@@H]3c2ccc(OC)c(OC)c2)cc1OC [Eudesmin] , can you help?
24.3
